The compounds listed here are annotated with their pIC50.
Target: HIS-TGFβR1 T204D (Homo sapiens (Human), UniProt P36897, T204D)
Sequence (P36897 34-503 T204D): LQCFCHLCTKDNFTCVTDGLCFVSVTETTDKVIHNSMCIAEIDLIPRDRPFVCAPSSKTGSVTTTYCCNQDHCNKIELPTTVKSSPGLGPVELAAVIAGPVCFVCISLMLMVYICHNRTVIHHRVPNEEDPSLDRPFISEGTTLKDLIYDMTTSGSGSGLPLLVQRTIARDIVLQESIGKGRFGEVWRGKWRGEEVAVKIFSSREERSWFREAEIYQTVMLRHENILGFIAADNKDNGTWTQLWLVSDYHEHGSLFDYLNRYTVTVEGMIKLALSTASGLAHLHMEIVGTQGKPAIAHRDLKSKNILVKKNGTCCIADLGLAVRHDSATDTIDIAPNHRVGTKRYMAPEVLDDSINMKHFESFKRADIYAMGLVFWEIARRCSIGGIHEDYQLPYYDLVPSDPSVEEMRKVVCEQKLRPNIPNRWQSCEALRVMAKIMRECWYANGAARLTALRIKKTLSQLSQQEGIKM
Experiment: HTRF probe-displacement assay, HIS-TGFβR1 T204D
Conditions: 1 hour at room temperature
pIC50 field: float, defined as -log10 of concentration (mol/L).

O=C(NCCCN1CCS(=O)(=O)CC1)c1cnccc1Nc1nc(-c2cccc(C(F)F)n2)nn2cccc12 ... 8.07
Fc1cnccc1Nc1nc(-c2ccnc(C(F)(F)F)n2)nn2cccc12 ... 7.82
O=C(NCCO)c1cnccc1Nc1nc(-c2cccc(C(F)F)n2)nn2cccc12 ... 8.41

[in] # get_value(readout='pIC50', item= CCc1cc2c(Nc3ccncc3F)nc(-c3cccc(OC)n3)nn2c1 [Example 29] )
[out] 7.80

[in] Could you share which pIC50 value was measured for COc1cccc(-c2nc(NCc3ccncc3)c3cccn3n2)n1 ?
[out] 6.09

[in] Fill blank: measured pIC50 of the compound NCCCNCc1ccn2nc(-c3ccccn3)nc(Nc3ccncc3F)c12 is ____.
[out] 8.54

[in] Endpoint output: pIC50 of Clc1cnccc1Nc1nc(-c2ccccn2)nn2cccc12 . Value?
[out] 8.80

[in] Tell me the measured pIC50 of Fc1cnccc1Nc1nc(-c2ccccn2)nn2ccc(CNCC(F)(F)F)c12 , please.
[out] 8.96

[in] Need pIC50 of Cc1cncc(-c2nc(Nc3ccncc3F)c3cccn3n2)n1 , thanks.
[out] 7.02

====

Target: HIS-TGFβR1 T204D (Homo sapiens (Human), UniProt P36897, T204D)
Assay: HTRF probe-displacement assay, HIS-TGFβR1 T204D
Settings: 1 hour at room temperature
The following molecules are shown together with reported pIC50 values.
// pIC50 here means minus log10 of the molar concentration (mol/L)

Cc1cccc(-c2nc(Nc3ccncc3C(=O)NCCCO)c3cccn3n2)n1 [Example 159] ... 8.32

[in] What does the record list as pIC50 for OCCN1CCN(Cc2ccn3nc(-c4ccccn4)nc(Nc4ccncc4F)c23)CC1 [Example 231] ?
[out] 8.64

[in] I have this molecule here, COc1cccc(-c2nc(Nc3ccncc3)c3c(C)ccn3n2)n1 [Example 16] , and I need its recorded pIC50.
[out] 8.03

[in] Please give the measured pIC50 for this molecule: NC(=O)c1cc(Nc2nc(-c3cccc(C(F)(F)F)n3)nn3cccc23)ccn1 [Example 315]
[out] 6.05

[in] Recorded pIC50 for CCN(CC)CCNC(=O)c1cnccc1Nc1nc(-c2ccccn2)nn2cccc12 [Example 143] , please?
[out] 7.72

[in] pIC50 lookup needed for Cc1nc(-c2nc(Nc3ccnc(NC(=O)C4CC4)c3)c3cccn3n2)ccc1F [Example 345] , thanks.
[out] 8.85

[in] Quick one: pIC50 for CCC[C@@H](CO)NCc1ccn2nc(-c3ccccn3)nc(Nc3ccncc3F)c12 [Example 273] ?
[out] 8.80

[in] Data request, read-out pIC50, for CC(=O)Nc1cc(Nc2nc(-c3cccc(C(F)(F)F)n3)nn3ccc(CNCC(C)(C)O)c23)ccn1 [Example 254]
[out] 8.70

[in] Which pIC50 is listed for Fc1cnccc1Nc1nc(-c2ccccn2)nn2ccc(CNCC3CCCO3)c12 (stereo not drawn) [Example 247] ?
[out] 9.00

[in] Name the reported pIC50 value associated with the molecule Fc1cccc(-c2nc(Nc3ccncc3Cl)c3cccn3n2)n1 [Example 70]
[out] 9.41

[in] # pIC50 lookup, item CC(=O)Nc1cc(Nc2nc(-c3cccc(F)n3)nn3cccc23)ccn1 [Example 291]
[out] 9.07

[in] I am curious: what pIC50 value has been reported for Cc1cccc(-c2nc(Nc3ccncc3C(=O)NC3CCOCC3)c3cccn3n2)n1 [Example 164] ?
[out] 7.12

[in] Record request: pIC50 value, item COc1cccc(-c2nc(Nc3ccnc(NCCN4CCC(O)CC4)c3)c3c(C)ccn3n2)n1 [Example 136]
[out] 6.14

====

Biological target: HIS-TGFβR1 T204D (Homo sapiens (Human), UniProt P36897, T204D)
Test: HTRF probe-displacement assay, HIS-TGFβR1 T204D
Conditions: 1 hour at room temperature
Binary call on IC50 with cut-off 9 nM: strictly below means y, and equality or higher means n.

Some solved entries appear below for comparison.
Cc1cccc(-c2nc(Nc3ccncc3C(=O)NCC3(O)CCN(C)CC3)c3cccn3n2)n1 [Example 154] ... n
Fc1cnccc1Nc1nc(-c2ccc(C(F)(F)F)cn2)nn2cccc12 [Example 248] ... n
CC(=O)Nc1cc(Nc2nc(-c3ccccn3)nn3ccc(CN4CCC(F)(F)CC4)c23)ccn1 [Example 24] ... y
O=C(N[C@@H]1CCC[C@@H]1O)c1cnccc1Nc1nc(-c2cccc(C(F)F)n2)nn2cccc12 [Example 198] ... n
COc1cccc(-c2nc(Nc3ccncc3F)c3cc(CNCCCN4CCS(=O)(=O)CC4)cn3n2)n1 [Example 209] ... n

[in] In plain terms, does CCc1cc2c(Nc3ccncc3F)nc(-c3cccc(OC)n3)nn2c1 [Example 42] come in under 9 nM for IC50?
[out] n

[in] Take the compound CC(=O)Nc1cc(Nc2nc(-c3ccc(F)cn3)nn3cccc23)c(F)cn1 [Example 323] and say whether its IC50 is less than 9 nM.
[out] n

[in] Criterion: IC50 strictly below 9 nM. Is it met by Cc1nnc(NCc2ccn3nc(-c4ccccn4)nc(Nc4ccncc4F)c23)s1 [Example 308] ?
[out] y

[in] Please check: IC50 for OCC(CO)NCc1ccn2nc(-c3ccccn3)nc(Nc3ccncc3F)c12 [Example 264] , strictly under 9 nM or not?
[out] y

[in] Is it true that IC50 reported for COc1cccc(-c2nc(Nc3ccncc3Cl)c3cccn3n2)n1 [Example 60] is less than 9 nM?
[out] y

[in] A record lists COc1cccc(-c2nc(Nc3ccncc3F)c3cc(NC(=O)CN4CCOCC4)cn3n2)n1 [Example 106] . Is its IC50 below 9 nM?
[out] n

[in] Does this compound meet the criterion IC50 < 9 nM? Cc1cccc(-c2nc(Nc3ccncc3C(=O)NCCCN3CCCC3)c3cccn3n2)n1 [Example 221]
[out] y

====

Target: HIS-TGFβR1 T204D (Homo sapiens (Human), UniProt P36897, T204D)
Experiment: HTRF probe-displacement assay, HIS-TGFβR1 T204D
Settings: 1 hour at room temperature
MEASURED_METRIC: IC50 (nM)
Quick reminder: number only, in nM, skip the unit.

Below: 2 molecules and their reported IC50.
COc1cccc(-c2nc(Nc3ccnc(F)c3)c3c(C)ccn3n2)n1 ... 650
CC(O)CCNCc1ccn2nc(-c3ccccn3)nc(Nc3ccncc3F)c12 (centres unmarked) ... 0.52

[in] What value of IC50 has been reported for the following molecule? Fc1cnccc1Nc1nc(-c2ccccn2)nn2ccc(CNC3CNC3)c12
[out] 13

[in] Given Cc1csc(-c2nc(Nc3ccncc3F)c3cccn3n2)n1 , state its recorded IC50.
[out] 0.8

====

Target: HIS-TGFβR1 T204D (Homo sapiens (Human), UniProt P36897, T204D)
Test: HTRF probe-displacement assay, HIS-TGFβR1 T204D
Details: 1 hour at room temperature
As shown below, each of these molecules has a reported pIC50 value.
Lab note: report pIC50 as minus log10 of the concentration in molar units, number only.

The following molecules have reported results that may help.
COc1cccc(-c2nc(Nc3ccncc3F)c3c(CCN4CCOCC4)ccn3n2)n1 ... 6.92
CC(=O)Nc1nccc(Nc2nc(-c3cccc(C(F)F)n3)nn3cccc23)c1F ... 8.29
O=C(NCc1ccccn1)c1cnccc1Nc1nc(-c2cccc(C(F)F)n2)nn2cccc12 ... 7.49
CC(C)(O)CNCC(=O)Nc1cc(Nc2nc(-c3cccc(C(F)(F)F)n3)nn3cccc23)ccn1 ... 9.22
COc1cccc(-c2nc(Nc3ccncc3F)c3c(CN4CCN(C)CC4)ccn3n2)n1 ... 7.66
CS(=O)(=O)Nc1cccc(-c2nc(Nc3ccncc3)c3cccn3n2)n1 ... 7.92
COc1cccc(-c2nc(Nc3ccncc3CO)c3cccn3n2)n1 ... 8.04
COc1cccc(-c2nc(Nc3ccncc3F)c3cc(NC(=O)CN)cn3n2)n1 ... 5.80

[in] Report pIC50 for COc1cccc(-c2nc(Nc3ccncc3F)c3cc(C(C)(C)O)cn3n2)n1 please.
[out] 5.80

[in] Suppose we examine the molecule C[C@@H]1CN(CCNC(=O)c2cnccc2Nc2nc(-c3ccccn3)nn3cccc23)C[C@H](C)O1 ; what pIC50 value has been reported?
[out] 6.77

[in] Could you share which pIC50 value was measured for Cc1cccc(-c2nc(Nc3ccncc3OCCCN3CCOCC3)c3cccn3n2)n1 ?
[out] 7.17

[in] Quick one: pIC50 for Fc1cnccc1Nc1nc(-c2ccccn2)nn2ccc(CNc3ccc(-c4cnco4)cc3)c12 ?
[out] 7.15

[in] Please look up its pIC50: Cc1cccc(-c2nc(Nc3ccncc3)c3cc(C(=O)NCCCN4CCCC4)cn3n2)n1
[out] 7.12

[in] Reported pIC50 for CCc1nnc(CNC(=O)c2cnccc2Nc2nc(-c3cccc(C(F)F)n3)nn3cccc23)o1 : what is it?
[out] 7.80

[in] pIC50 for O=C(NCCCN1CCS(=O)(=O)CC1)c1cnccc1Nc1nc(-c2ccccn2)nn2cccc12 ?
[out] 7.08

[in] Give its pIC50 value. Item: COc1cccc(-c2nc(Nc3ccncc3F)c3cc(CN4CCC(F)(F)CC4)cn3n2)n1
[out] 6.64
